Target Entity: gEgI WT: HSV2 gEgI heterodimer comprising gE and gI wildtype ectodomains (HSV2, UniProt P89475 21-416; P06764 21-256)
Assay Details: SPR binning; gEgI captured by mAb 20

Binder | RU
mAb clone 20 (antibody, V domains shown) VH: QVQLQQSGAELVRPGTSVKVSCKASGYAFTNYLIEWVKQRPGQGLEWIGVINPGSGGTNYNEKFKGKATLTADKSSSTAYMQLSSLTSDDSAVYFCARSHYGNYYAMDYWGQGTSVTVSS VL: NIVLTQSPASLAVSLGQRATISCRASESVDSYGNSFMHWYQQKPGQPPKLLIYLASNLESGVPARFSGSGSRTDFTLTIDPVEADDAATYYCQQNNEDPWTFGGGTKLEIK | 9.7 RU
mAb clone 39 (antibody, V domains shown) VH: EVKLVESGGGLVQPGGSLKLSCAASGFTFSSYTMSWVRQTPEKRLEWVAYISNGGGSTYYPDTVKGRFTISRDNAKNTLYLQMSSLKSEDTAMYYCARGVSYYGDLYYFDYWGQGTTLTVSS VL: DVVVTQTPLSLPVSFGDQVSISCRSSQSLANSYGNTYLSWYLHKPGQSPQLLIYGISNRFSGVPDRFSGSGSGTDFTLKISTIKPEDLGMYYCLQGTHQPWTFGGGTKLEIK | 3.1 RU
mAb clone 24 (antibody, V domains shown) VH: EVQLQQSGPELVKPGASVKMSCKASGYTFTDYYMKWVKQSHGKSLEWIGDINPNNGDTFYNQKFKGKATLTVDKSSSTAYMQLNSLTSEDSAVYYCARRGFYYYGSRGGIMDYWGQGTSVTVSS VL: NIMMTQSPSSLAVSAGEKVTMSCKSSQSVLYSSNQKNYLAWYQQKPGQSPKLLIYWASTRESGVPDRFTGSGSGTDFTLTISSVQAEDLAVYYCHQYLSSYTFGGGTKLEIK | 17.7 RU

These entries and their values trace back to patent US20230331820A1.
